Reference source for all entries: patent US5187192A

test system: leukotriene biosynthesis; test: Inhibition of leukotriene biosynthesis in vivo after oral administration, rat peritoneal anaphylaxis model; details: at 30 μM/kg, gavage one hour prior to antigen challenge, peritoneal fluid 15 minutes after challenge
property_measured: Percent Inhibition of Leukotriene Biosynthesis (%)
Expressed in %, but write only the number.

Q) Can you look up Percent Inhibition of Leukotriene Biosynthesis on leukotriene biosynthesis for NC(=O)N(O)C1CC(c2ccc(Oc3ccc(F)cc3)s2)C1 (single isomer, unassigned) ?
A) 82

Q) Can you look up Percent Inhibition of Leukotriene Biosynthesis on leukotriene biosynthesis for NC(=O)N(O)C1CC(c2ccccc2)C1 (single isomer, unassigned) [Example 2b, N-[3-phenylcyclobutyl]-N-hydroxyurea] ?
A) 45

Q) Can you look up Percent Inhibition of Leukotriene Biosynthesis on leukotriene biosynthesis for NC(=O)N(O)C1CC(c2ccccc2)C1 (single isomer, unassigned) [Example 2a, N-[3-phenylcyclobutyl]-N-hydroxyurea] ?
A) 51

Q) Can you look up Percent Inhibition of Leukotriene Biosynthesis on leukotriene biosynthesis for NC(=O)N(O)C1CC(c2cccc(Oc3ccc(F)cc3)c2)C1 (single isomer, unassigned) [Example 1a] ?
A) 76

Q) Can you look up Percent Inhibition of Leukotriene Biosynthesis on leukotriene biosynthesis for NC(=O)N(O)C1CC(c2cccc(Oc3ccc(F)cc3)c2)C1 (single isomer, unassigned) [Example 1b] ?
A) 59
